- System: Staphylococcus aureus
- TEST PROTOCOL: Antibacterial activity against methicillin-sensitive Staphylococcus aureus ATCC 25923 after 18 to 20 hrs by spectrophotometry based microdilution method
- Format: functional
Calls of active or inactive are those of the source. The rule behind the calls is not given here. Non-standard residues stand in square brackets, D forms with d. Residues, ends and D or L forms follow the SMILES beside them. *: point of attachment. Mycophenolyl = COc1c(C)c2c(c(O)c1C/C=C(\C)CCC(=O)*)C(=O)OC2; Arg(NO2) = N=C(NCCC[CH](N)C(=O)O)N[N+](=O)[O-]; βAla = NCCC(=O)O
ATTRIBUTE MEASURED: MIC50

COc1c(C)c2c(c(O)c1C/C=C(\C)CCC(=O)N[C@H](C(=O)O)[C@@H](C)O)C(=O)OC2	inactive
COc1c(C)c2c(c(O)c1C/C=C(\C)CCC(=O)N[C@H](CCCNC(=N)N[N+](=O)[O-])C(=O)O)C(=O)OC2	inactive
COC(=O)[C@@H](NC(=O)CC/C(C)=C/Cc1c(O)c2c(c(C)c1OC)COC2=O)C(C)O (stereo not given in full)	8 µg/mL
COC(=O)[C@@H](CCCNC(=N)N[N+](=O)[O-])NC(=O)CC/C(C)=C/Cc1c(O)c2c(c(C)c1OC)COC2=O	inactive
CC[C@H](C)[C@H](NC(=O)CC/C(C)=C/Cc1c(O)c2c(c(C)c1OC)COC2=O)C(=O)O	inactive
COC(=O)C[C@H](NC(=O)CC/C(C)=C/Cc1c(O)c2c(c(C)c1OC)COC2=O)C(=O)OC	32 µg/mL
COC(=O)C(NC(=O)C(CCCCNC(=O)CN)NC(=O)C1CCCN1C(=O)C(CCCNC(=N)N[N+](=O)[O-])NC(=O)CC/C(C)=C/Cc1c(O)c2c(c(C)c1OC)COC2=O)C(C)O (stereo not given) (Mycophenolyl-[Arg(NO2)]PK(Gly)T-OMe; configuration not given here)	64 µg/mL
COC(=O)[C@H](CCCNC(=N)N[N+](=O)[O-])NC(=O)CC/C(C)=C/Cc1c(O)c2c(c(C)c1OC)COC2=O	32 µg/mL
COC(=O)C(NC(=O)C(CCCCNC(=O)CCN)NC(=O)C1CCCN1C(=O)C(CCCNC(=N)N[N+](=O)[O-])NC(=O)CC/C(C)=C/Cc1c(O)c2c(c(C)c1OC)COC2=O)C(C)O (stereo not given) (Mycophenolyl-[Arg(NO2)]PK(βAla)T-OMe; configuration not given here)	32 µg/mL
CCC(C)[C@H](NC(=O)CC/C(C)=C/Cc1c(O)c2c(c(C)c1OC)COC2=O)C(=O)OC (stereo not given in full)	16 µg/mL

I need MIC50 for every entry listed below, if you could help.
1. COc1c(C)c2c(c(O)c1C/C=C(\C)CCC(=O)N[C@@H](C(=O)O)[C@@H](C)O)C(=O)OC2
2. COc1c(C)c2c(c(O)c1C/C=C(\C)CCC(=O)N[C@@H](CC(=O)O)C(=O)O)C(=O)OC2

1. inactive
2. inactive

Taken from ChEMBL document CHEMBL4251587.
